Where do the numbers come from? From patent US20170008928A1.

Provide the recorded EC50 (CCK-1R) for the entries that follow.
Molecular target: T1, human cholecystokinin-1 receptor (human, UniProt P32238 1-428)
T1 sequence (looked up): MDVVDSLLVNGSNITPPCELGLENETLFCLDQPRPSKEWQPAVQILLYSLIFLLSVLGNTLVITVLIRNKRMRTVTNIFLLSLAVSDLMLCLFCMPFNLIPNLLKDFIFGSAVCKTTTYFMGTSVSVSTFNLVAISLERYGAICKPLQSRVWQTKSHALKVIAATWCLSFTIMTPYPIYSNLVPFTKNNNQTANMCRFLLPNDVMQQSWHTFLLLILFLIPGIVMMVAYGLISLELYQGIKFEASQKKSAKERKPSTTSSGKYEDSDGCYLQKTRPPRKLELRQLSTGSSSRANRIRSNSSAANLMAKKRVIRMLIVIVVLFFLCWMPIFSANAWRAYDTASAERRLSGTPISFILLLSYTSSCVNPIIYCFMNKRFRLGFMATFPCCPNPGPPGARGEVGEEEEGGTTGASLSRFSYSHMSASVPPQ
Assay: cell-based or functional assay
Starred links: 1 amine or outer side, 2 acyl side, 3 side chain; linkers in the order of their positions; H or OH if unused. Non-standard residues stand in square brackets, D forms with d. No end group written: not given here. *: point of attachment. Phe(4-CH2SO3H) = N[C@@H](Cc1ccc(CS(=O)(=O)O)cc1)C(=O)O; sY = N[C@@H](Cc1ccc(OS(=O)(=O)O)cc1)C(=O)O; C18 diacid = O=C(O)CCCCCCCCCCCCCCCCC(=O)*; γGlu = O=C(O)[C@H](CCC(=O)[*:2])N[*:1]; Met(O2) = CS(=O)(=O)CC[C@H](N)C(=O)O; NMeF = CN[C@@H](Cc1ccccc1)C(=O)O; dNMeD = CN[C@H](CC(=O)O)C(=O)O; Nle = CCCC[C@H](N)C(=O)O; AEEA = NCCOCCOCC(=O)O
Number in nM, nothing else.

(Q) Specify measured EC50 (CCK-1R) for EGPWLEEEEEAYGWMDF (N-terminal pyroglutamic acid (pE, Pyr); C-terminal amide; Tyr non-sulfated) .
(A) 530

(Q) Look up EC50 (CCK-1R) of {C18 diacid-γGlu-AEEA-AEEA}-[dD][Phe(4-CH2SO3H)][Nle]GW[Nle][dNMeD][NMeF]-NH2 (X = Nle or Nal) and report it.
(A) 0.37

(Q) Give a short answer stating reported EC50 (CCK-1R) for D[sY]KGW[Nle][dNMeD][NMeF]-NH2 (N-terminus assumed; SMILES CCCC[C@H](NC(=O)[C@H](Cc1c[nH]c2ccccc12)NC(=O)CNC(=O)[C@H](CCCCN)NC(=O)[C@H](Cc1ccc(OS(=O)(=O)O)cc1)NC(=O)[C@@H](N)CC(=O)O)C(=O)N(C)[C@H](CC(=O)O)C(=O)N(C)[C@@H](Cc1ccccc1)C(N)=O, X = Nle or Nal) [Asp-sTyr-Lys-Gly-Trp-Nle-DMeAsp-MePhe-amide] .
(A) 0.26

(Q) Consider the binder D[sY]LGW[Met(O2)][dNMeD][NMeF]-NH2 [Asp-sTyr-Leu-Gly-Trp-Met(O2)-DMeAsp-MePhe-amide] . State its measured EC50 (CCK-1R).
(A) 0.37
